- Test system: pancreatic MiaPaCa2 cancer cells
- METHOD_DESCRIPTION: XTT viability assay, MiaPaCa2
- Type: cell-based
- RUN_PARAMETERS: Homo sapiens, MIA PaCa-2, read-out: killing efficacy (IC50)
MEASURED_PARAMETER: pIC50
Give bare numbers, as −log10 of the molar value.

Quick one: pIC50 of Nc1ccn([C@@H]2O[C@H](CO)[C@@H](O)C2(F)F)c(=O)n1 [Gemcitabine] ? 5.94
